biological target: pooled human IgG (human IgG1, 2, 3 and 4)
# Enzyme Activity Endpoint Assay: IgG annotations
Express your answer in ng/µL, writing the number without its unit.

Examples with answers:
* PRT-477 (protein) MVTSVWTKGVTPPTNFTYGEDVLHAPYVANQGWYDITKTFNGKDDLLCGAATAGNMLHWWFDQNKEQIENYLKKHPEKQKINFNGEQMFDVKEAIDTKDSQLDSKLFEYFKEKAFPYLSTKHLGVFPDHVIDMFINGYRLSLTNHGPTPVKRGSKDPRGGIFDAVFTRGDQSKLLTNRHDLKNKTLKEISDLIKQELTEGKALGISHTYANVRINHVINLWGADFDAEGNLEAIYVTDSDSNASIGMKKYFVGVNSNGKVAISAKEIEEDNIGAQVLGLFTLSTGQDIWNQTNLEHHHHHH | 0
* PRT-433 (protein) MSQTEDSESLQRLRDIEDFQAEKKKQNVVYTKWLDGVDVKDHDFRKIVDGNIAYYATPLLNGRGFYDINKDFNRDSDKCAAAVAANMFHYWLDRNRDNVDRFLRQNPEKHGIIELPDGQLKLSDFLNTYESDDGYRDKSKLFDFISNNFNGPVWTDKLLDNYINGYAYNYKYGRTIEDPTKNTSKINFFKEVFNEKILTNNHSIRNQNEFSVLLIEALYTGKAIGLSYGPAGLRHSLGHIISVWGADLDADGNVVAIYVTDSDDKKLTIGDERVGLKRYKISTDDEGRLRLTAYEETHNTGGQIRGLWTLDTGKQAWADYFDKTEQTGTDQAEQ | 0
* PRT-567 (protein) MANQEIRYSEETPSTITSVWTKGVTPPTDFIQNEDVLHAPYIANQGWYDITKTFNGKDDLLCGAATAGNMLHWWFDQNKEQIENYLKKHPEKQKINFNGEQMFDVKEAIDTKDSQTDSALFEYFKDKAFPYLSTKHLGVFPDHVIDMFINGYRLSLTNHGPTPVKRGTKDPRGGIFDAVFTRGDQSKLLTSRHDFKEKTLNEISDLIKQELTEGKALGLSHTYANVRINHVINLWGADFNAEGNLEAIYVTDSDSNASIGMKKYYVGVNSAGKVAISAKEIEGDNIGAQVLGLFTLSTGQDIWNQTNLEHHHHHH | 65

Let us move to another entry and its Enzyme Activity Endpoint Assay: IgG.
Asked: Could you tell me which Enzyme Activity Endpoint Assay: IgG is on file for PRT-439 (protein) MSQTEDSESLQRLRDIEDFQAEKKKQNVVYTKWLDGVDVKDHDFRKIVDGNIAYYATPLLNGRGFYDINKDFNRDSDKCAAAVAANMFHYWLDRNRDNVDRFLRQNPEKHGIIELPDGQLKLSDFLNTYESDDGYRDKSKLFDFISNNFNGPVWTDKLLDNYINGYAYNYKYGRLIEDPTKNTSKINFFKEVFNEKILTNNHSIRNQNEFSVLLSEALYTGKAIGLSYGPAGLRHSLGHIISVWGADLDADGNVVAIYVTDSDDKKLTIGDERVGLKRYKISTDDEGRLRLTAYEETHNTGGQIRGLWTLDTGKQAWADYFDKTEQTGTDQAEQ ?
Given back: 325
